# assay.system: T1, HCV Core1-169 (HCV-1, UniProt P26664 1-169)
# T1 construct: also called recombinant HCV core antigen
# T1 sequence: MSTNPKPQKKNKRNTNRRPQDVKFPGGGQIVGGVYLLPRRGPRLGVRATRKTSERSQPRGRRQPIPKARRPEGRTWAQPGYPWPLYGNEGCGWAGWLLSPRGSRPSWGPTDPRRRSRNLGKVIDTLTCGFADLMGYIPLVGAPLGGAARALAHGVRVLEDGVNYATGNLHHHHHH
# method.notes: EIA, core1-169 coated on plate; further: test concentration or dose not given here
property.measured: OD (A492) (OD)
Respond with the bare value in OD.

Using known records, supply OD (A492) for HCV 208B-327 (antibody, V domains shown) VH: EVQLVESGGGLVKPGGSLKLSCAASGFTFSDSYMYWVRQTPDQRLEWVATISDGGSYTFYPDSVKGRFTISRDNAQNNLYLQMSSLKSEDTAMYYCASPHAGYFGWFAYWGRGTLVTVSA VL: DIVMTQAAFSNPVTPGTSVSISCRSSKSLLHSNGITYLYWYLQKPGQSPQLLIYQMSKIASGVPDRFRSSGSGTDFTLRISRVEAADVGVYYCAQNLELPWTFGGGTKLEIKR 0.14

Using known records, supply OD (A492) for HCV 208A-442 (antibody, V domains shown) VH: DVQLQESGPGLVNPSQSLSLTCSVTGYSITSGYYWIWIRQFPGNKLEWMGYIKYDGGNNYSPSLKNRISIARDTSKNQFFLKLNSVTIEDTATYYCTRGSDSFDYWGQGTTLTVSS VL: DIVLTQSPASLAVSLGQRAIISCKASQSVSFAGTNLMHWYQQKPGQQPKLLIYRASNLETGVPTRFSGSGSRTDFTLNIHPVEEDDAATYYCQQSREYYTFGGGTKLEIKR 1.61
